# Particulars: basic group
Provide the recorded pKa for the entries that follow.
Answers are plain numbers.

>>> df
                                   molecule  measured_number
0  CC1C(=O)OC(C(C)(C)C)C1=O (stereo not given)             4.84
1          N[C@H](c1ccccc1)[C@H](O)c1ccccc1             10.5
2             [O-]c1c(Cl)cc(Cl)cc1CN1CCCCC1             11.1
3                                 CNC(CO)CO             9.12

We next turn to a different molecule, shown below.
# query: pKa of entry C[C@H](CCCNCc1ccccc1)[C@H]1CC[C@H]2[C@@H]3CC[C@@H]4C[C@H](O)CC[C@]4(C)[C@H]3C[C@H](O)[C@]12C
9.07

###

# Particulars: basic group
Exercise: state measured pKa for each of the compounds provided.
Give bare numbers.

In [3]: df
Out[3]:
                 smiles_string  measured_number
0             CCSC(=N)c1ccccc1             6.05
1     c1cnc2ccc3[nH+]cccc3c2c1              2.4
2  COC(=O)c1c2ccccc2nc2ccccc12             3.45
3     O=C(CCCN1CCOCC1)c1ccccc1             7.26
4        CC1=Nc2ccccc2N=C(C)C1             3.85

Note: attention shifts to another entry.
Look up pKa: Nc1ccccc1-c1ccccc1
3.81

###

So I've got a bunch of molecules here, and I need their pKa values.
# Particulars: basic group
Give bare numbers.

             smiles_string  endpoint_name  measured_number
0       NC(=O)CCCCc1ccncc1            pKa             5.92
1           CC(=O)c1ccccc1            pKa             18.3
2   C[n+]1ccc(NN)c2ccccc21            pKa             2.61
3  Nc1cccc([N+](=O)[O-])c1            pKa              2.6

Any idea what pKa was measured for CCNCC(=O)[O-] ?
10.2

###

# Particulars: acidic group
Please respond with reported pKa for every item in the list.
Answers are plain numbers.

Consider the following illustrative entries.
                                   compound  endpoint_name  measured_number
0  N#CC(CC(=O)O)c1ccccc1 (configuration not stated)            pKa             3.79
1                           Oc1cccc2cnccc12            pKa             8.45
2             O=C(O)c1cccc([N+](=O)[O-])c1O            pKa             2.16
3                   CN1C(=O)C2(CCCCC2)NC1=S            pKa             11.2
4           Cc1csc(NS(=O)(=O)c2ccc(N)cc2)n1            pKa             7.12
5                          Nc1c([O-])cccc1O            pKa             11.6

// for each compound in input: emit pKa
1. Cc1cc(O)n(-c2ccccc2)n1
2. O=C1NC(=O)c2cc(Cl)ccc21
3. CCCS
4. O=C1[C@H]2CCCC[C@H]2C(=O)N1O

1. 11.3
2. 9.48
3. 10.6
4. 6

Need pKa for each of these compounds.
1. C[Si](C)(C)c1ccc(C(=O)O)cc1
2. Oc1ccc(OCc2ccccc2)cc1
3. C=CCC1(C2=CCCCC2)C(=O)NC(=S)NC1=O
4. Oc1c(Cc2ccccc2)c(-c2ccccc2)nn1-c1ccccc1
5. O=C(O)c1cc([N+](=O)[O-])ccc1Sc1ccccc1
6. COC(=O)c1ccc(O)c([N+](=O)[O-])c1

4.27
10.5
7.09
7.6
3.22
5.4

// for each compound below, give its pKa
1. Oc1cc(-c2ccccc2)no1
2. O=C1NC(=O)C(c2ccccc2)C1=O (configuration not stated)
3. CNc1cc[nH+]c(S)n1
4. Cc1cc(O)cc(C)[o+]1
5. [O-][N+]([O-])=C(CO)CO

[4.01, 3.4, 3.09, 0.38, 13.5]

Provide the reported pKa of each entry below, same order.
1. O/N=C/c1ccc(O)cc1O
2. N#CC(c1ccc(Cl)cc1)c1ccc([N+](=O)[O-])cc1 (configuration not stated)
3. Cc1cc(C)c(C(=O)C(=O)O)c(C)c1
4. COc1ccc(/C=N/O)cc1OC
5. O=C(O)c1cc2ccccc2cc1O

1: 8.05; 2: 10.7; 3: 1.34; 4: 10.8; 5: 2.71

Below are some compounds; for each one, tell me its pKa.
1. O=C(O)CCCc1c[nH]c[nH+]1
2. C[NH+](C)CC(P(=O)([O-])O)P(=O)([O-])O
3. Cc1cc(Cc2cc(C)c(O)c(C)c2)c(O)c([N+](=O)[O-])c1
4. CCN(CC)Cc1ccccc1O
5. C[NH+]1CCC(n2nc(-c3ccccc3)c(Cc3ccccc3)c2O)CC1
6. [NH3+]c1ccc(O[C@H]2O[C@@H](C(=O)O)[C@H](O)[C@@H](O)[C@@H]2O)cc1
7. Nc1ccc(NS(=O)(=O)c2ccccc2)cc1

1: 4.26; 2: 5.75; 3: 7.98; 4: 10.8; 5: 6.73; 6: 3.1; 7: 9.05

Batch of 3 compounds: report pKa for each.
1. CC[NH+](C)CCCNC(=O)/C=N/O
2. C[NH+](C)Cc1ccc(O)cc1
3. C[N+](C)(C)CCc1ccc(O)cc1

8.72
8.83
9.8

I have 8 compounds here; please give me pKa for each one.
1. Nc1cc(N2CCOCC2)nc(N)n1
2. O=C(O)c1ccc(Cl)cc1Cl
3. CONc1cc(=O)n(C)c(=O)n1C
4. Cc1nn(-c2ccccc2)c(O)c1C1CCCCC1
5. Nc1ccc(C(=O)[O-])c2ncccc12
6. O=C(O)C(=O)Cc1ccccc1
7. CC/C(=N/O)NO
8. CCCc1c(C)[nH][n+](C)c1[O-]

1: -0.35; 2: 2.74; 3: 10.6; 4: 11.6; 5: 12.6; 6: 2.68; 7: 10.7; 8: 10.5

Please state pKa for every compound in the list that follows.
1. CCC(=O)c1cc(C(=O)c2ccccc2)n[nH]1
2. O=C(c1ccccc1)c1cccc([N+](=O)[O-])c1C(=O)O

9.14
2.39
